These data points were gathered from PubChem BioAssay (NCATS).

Tested on: CP194
test protocol: qHTS profiling for inhibitors of Plasmodium falciparum proliferation (AID 504749); further: nearly all actives have a fitted effect of over 60% in size
measurement context: P. falciparum in erythrocytes, SYBR Green DNA, 72 h; series mostly up to 28.7 µM
Inconclusive results are not listed. The source made the active and inactive calls. The call rests on the fitted dose curve; in most records, active means well fitted inhibition curve with a large enough effect; inconclusive means small, poorly fitted or top-dose-only effect; inactive means flat fitted curve, though single readings scatter.
Answer with one of the outcomes given here: Yes (active), No (inactive)

Nc1ccc(C(=O)O)c(O)c1    No
CCCC(=O)OC[C@@H](OC(=O)CCC)[C@@H](OC(=O)CCC)[C@H](Cn1c2nc(=O)[nH]c(=O)c-2nc2cc(C)c(C)cc21)OC(=O)CCC    No

Lookup: Fill in: this test's call for `O=C(O)COc1ccc(C(=O)c2cccs2)c(Cl)c1Cl` is ___
Found: No

Lookup: Fill in: this test's call for `O=C(O)c1cc(O)c(O)c(O)c1` is ___
Found: No

Lookup: Fill in: this test's call for `O=C1CN(/N=C/c2ccc(-c3ccc([N+](=O)[O-])cc3)o2)C(=O)N1` is ___
Found: No

Lookup: Fill in: this test's call for `Cc1ccc(C(=O)c2ccc(CC(=O)O)n2C)cc1` is ___
Found: No

Lookup: Fill in: this test's call for `O=C(Nc1ccc(C(=O)O)c(O)c1)c1ccccc1` is ___
Found: No

Lookup: Fill in: this test's call for `CCCCCCCCCCCCCCCC(=O)OC(C)C` is ___
Found: No

Lookup: Fill in: this test's call for `Nc1ccc(O)c(C(=O)O)c1` is ___
Found: No

Lookup: Fill in: this test's call for `CC(=O)[C@]1(O)Cc2c(O)c3c(c(O)c2[C@@H](O[C@H]2C[C@H](N)[C@H](O)[C@H](C)O2)C1)C(=O)c1c(O)cccc1C3=O` is ___
Found: Yes

Lookup: Fill in: this test's call for `c1ccc2sc(SSc3nc4ccccc4s3)nc2c1` is ___
Found: No

Lookup: Fill in: this test's call for C=CC(N)CCC(=O)O (stereo unspecified) is ___
Found: No

Lookup: Fill in: this test's call for `O=C(OCc1ccccc1)c1ccccc1` is ___
Found: No

Lookup: Fill in: this test's call for `COc1cc(CNC(=O)CCCC/C=C/C(C)C)ccc1O` is ___
Found: No

Lookup: Fill in: this test's call for `O=C(/C=C/c1ccccc1)NCCO` is ___
Found: No

Lookup: Fill in: this test's call for O=C(O)/C=C/C(O)c1ccc(Cl)cc1 (stereo unspecified) is ___
Found: No

---

assayed system: Glutaminase kidney isoform, mitochondrial (Homo sapiens)
test protocol: qHTS for Inhibitors of Glutaminase (GLS): LOPAC Validation (AID 624146);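 further: glutamate product detected by oxidase and peroxidase coupled Amplex red fluorescence gain; nearly all actives have a fitted effect of over 60% in size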
measurement context: glutaminase enzyme activity inhibition; series mostly up to 46.1 µM
Results filed as inconclusive are left out. Calls of active or inactive are those of the source. Calls follow the shape of the dose curve; as a rule, active = well fitted inhibition curve with a large enough effect; inconclusive = small, poorly fitted or top-dose-only effect; inactive = no such curve, though single readings can be large or run the other way.
measurement kind: Potency

OC[C@H]1O[C@@H](n2cnc3c(Nc4ccccc4)ncnc32)[C@H](O)[C@@H]1O    inactive
NC[C@@H]1O[C@H](C23CC4CC(CC(C4)C2)C3)Cc2c1ccc(O)c2O    inactive
CCCCCCCCCCCCCCCCCC(=O)OC(CC(=O)O)C[N+](C)(C)C (stereo not given)    inactive
c1cnc2c(c1)ccc1cccnc12    inactive
Cn1ncc(S(=O)(=O)Cc2ccccc2)c(Br)c1=O    inactive
c1ccc(-c2ccccn2)nc1    inactive
CC(COc1ccc(/C=C/c2ccccc2)cc1)[N+](C)(C)C (stereo not given)    inactive
CNC(=O)[C@H]1O[C@@H](n2cnc3c(NCc4ccc(N)cc4)ncnc32)[C@H](O)[C@@H]1O    inactive

Lookup: Please look up its Potency: `C=CC(C)=C[C@@]1(C)SC(=O)C(C)=C1O`
Found: inactive

Lookup: Please look up its Potency: `Brc1c(Br)c(Br)c2n[nH]nc2c1Br`
Found: inactive

Lookup: Please look up its Potency: `CCN1/C(=C/C(C)=O)Sc2ccc(OC)cc21`
Found: inactive

Lookup: Please look up its Potency: `CO/N=C(\C(=O)N[C@@H]1C(=O)N2C(C(=O)O)=C(COC(C)=O)CS[C@H]12)c1csc(N)n1`
Found: inactive

Lookup: Please look up its Potency: `NCCCS(=O)(=O)O`
Found: inactive
